Assay: viability loss in pontine glioma line – cell-based, SU-DIPG-XXV, MIPE5.0, CellTiter-Glo, qHTS, dose response (AID 1347065);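 note: cells exposed to compound for 48 hours before ATP readout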
Conditions: CellTiter-Glo ATP luminescence
Records with an inconclusive call do not appear. The source made the active and inactive calls. No cut-off is given here; in the data, nearly all actives have AC50 up to about 26 µM.
metricName: outcome

C[C@H](CCC(=O)O)[C@H]1CC[C@H]2[C@@H]3[C@@H](O)C[C@@H]4C[C@H](O)CC[C@]4(C)[C@H]3CC[C@]12C
inactive
CCOC(=O)C1=C(O)C(=O)N(Cc2ccccc2)C1
inactive
CN1CCCN=C1/C=C/c1cccs1
inactive

* * *

Below, each entry is listed alongside its reported viability decrease (inhibition).
Experiment: CellTiter-Glo luminescent readout of SW480 viability loss, NPC library primary (AID 1117343)
Settings: CellTiter-Glo luminescence; at 20 µM (top of the series) unless noted
// return numeric value only (unit: %, not printed)

Cc1ncc(C[n+]2csc(CCO)c2C)c(N)n1
7.9
O=C(O)Cc1sc(-c2ccccc2)nc1-c1ccc(Cl)cc1
32.4
CC(C)c1c(C(=O)Nc2ccccc2)c(-c2ccccc2)c(-c2ccc(F)cc2)n1CC[C@@H](O)C[C@@H](O)CC(=O)O
96.3

QUERY: Look up viability decrease (inhibition) of CC(=O)CC(c1ccc([N+](=O)[O-])cc1)c1c(O)c2ccccc2oc1=O (centres undefined) and report it.
RESULT: 21.6

* * *

Assay: differential killing of epithelial or mesenchymal cells, primary screen, imaging, PC-3E GFP, TEM4-18 mCherry, co-culture (AID 1345086);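 note: cells exposed to compound for 72 h before imaging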
Conditions: imaging cell counts, measured here: epithelial PC-3E GFP cell survival, at 1 µM
metricName: normalised cell number
The answer should be written as a number, with no unit following it.

O=C(O)C1(O)C[C@@H](O)C(O)[C@H](O)C1 (some centres not stated)
1.27
NCCCNCCSP(=O)(O)O
1.03
CN(C)CC/C=C1\c2ccccc2Sc2ccc(Cl)cc21
1.11

QUERY: Indicate its recorded normalised cell number; the compound in question is `COc1ccc([C@H]2Oc3cc(OC)cc(OC)c3C[C@H]2O)cc1`
RESULT: 1.04

QUERY: Answer with the recorded normalised cell number for the compound listed here: CC1CC(OC(=O)c2ccccc2O)CC(C)(C)C1 (configuration not stated)
RESULT: 1.37

QUERY: State its normalised cell number for this compound: `CC[C@@H](CO)NCCN[C@@H](CC)CO`
RESULT: 0.99

QUERY: Determine its reported normalised cell number: `CCCCNc1ccc(C(=O)OCCOCCOCCOCCOCCOCCOCCOCCOCCOC)cc1`
RESULT: 0.86

QUERY: Note down normalised cell number recorded for `O=C(Oc1ccccc1C(=O)O)c1ccccc1O`
RESULT: 1.17

QUERY: Let me know recorded normalised cell number for CCCCCC1C(=O)CCC1CC(=O)OC (configuration not stated) , thanks.
RESULT: 1.26

QUERY: Please look at this compound and report its normalised cell number: `Cc1cc(O)cc(O)c1C(=O)O`
RESULT: 1.09

QUERY: # return recorded normalised cell number for input `COc1c2occc2cc2ccc(=O)oc12`
RESULT: 0.84

QUERY: Provide normalised cell number value for the following compound: `COc1c2ccoc2c(OC)c2oc(=O)ccc12`
RESULT: 1.03

QUERY: For the compound CC1NC(=O)NC1=O (configuration not stated) , give its measured normalised cell number value.
RESULT: 0.94

QUERY: Kindly indicate its recorded normalised cell number. Item: `CCN(CC)Cc1ccc(Nc2ccnc3cc(Cl)ccc23)cc1O`
RESULT: 1.14

* * *

Tested on: F380Y/beta2Delta
Experiment: modulators of BK channel variants, profiling panel, selectivity assay, cell-based, U2OS BacMam, thallium flux, beta subunits (AID 1259406);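 note: initial slope of Thallos dye fluorescence rise after thallium is added; log ratio against the mean of 0.3% DMSO vehicle wells on the same plate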
Conditions: at 30 µM
The reader will find reported log fold change Tl+ flux values listed item by item below.
Form rule: numeric answer, no unit written next to it.

CNCCC(Oc1ccc(C(F)(F)F)cc1)c1ccccc1 (stereo not given)
0.189

QUERY: For the molecule CC(C(=O)O)c1cccc(C(=O)c2ccccc2)c1 (stereo not given) , give its reported log fold change Tl+ flux.
RESULT: 0.023

QUERY: Please give the documented log fold change Tl+ flux of CC(C)NCC(O)COc1cccc2ccccc12 (stereo not given)
RESULT: 0.058

QUERY: Read the entry CC1(C)SC2C(NC(=O)COc3ccccc3)C(=O)N2C1C(=O)O (stereo not given) and write its reported log fold change Tl+ flux.
RESULT: 0.0322

QUERY: In one line, give reported log fold change Tl+ flux of the entry CCCC(=O)Nc1ccc(OCC(O)CNC(C)C)c(C(C)=O)c1 (stereo not given) .
RESULT: -0.0305

QUERY: Supply log fold change Tl+ flux value. Item: `COc1ccc(/C=C/C(=O)Nc2ccccc2C(=O)O)cc1OC`
RESULT: -0.0218

QUERY: Given the molecule `CC1=C(/C=C/C(C)=C/C=C/C(C)=C\C(=O)O)C(C)(C)CCC1` , write its reported log fold change Tl+ flux.
RESULT: 0.000191

QUERY: Provide measured log fold change Tl+ flux value, entry: `C#C[C@]1(O)CC[C@H]2[C@@H]3CCC4=CC(=O)CC[C@@H]4[C@H]3CC[C@@]21C`
RESULT: 0.0279

QUERY: Output log fold change Tl+ flux of `O=C(O)CCc1nc(-c2ccccc2)c(-c2ccccc2)o1`
RESULT: 0.0584

QUERY: Please look at this molecule and report its log fold change Tl+ flux: Nc1ccn([C@@H]2O[C@H](CO)[C@@H](O)C2O)c(=O)n1 (stereo not given in full)
RESULT: 0.0269

QUERY: Indicate the recorded log fold change Tl+ flux value for this molecule: `O=[N+]([O-])c1cccc2cn[nH]c12`
RESULT: -0.000818

* * *

Assay: inhibitors of polyQ protein aggregation (AID 1604)
Conditions: polyglutamine-induced protein aggregation inhibition assay; stronger effect = higher value; concentration not given here
Binary classification by inhibition of aggregation, with 60% as an inclusive lower bound for Criterion met; all other cases are Criterion not met.

Nc1ncnc2c1ncn2[C@@H]1O[C@H](CO)[C@@H](O)[C@@H]1O
Criterion not met

QUERY: // inclusive: inhibition of aggregation at least 60%? input: `COc1cc2ccc(=O)oc2cc1O`
RESULT: Criterion not met

QUERY: Assess whether reported inhibition of aggregation for `N=c1nc(N2CCCCC2)cc(N)n1O` sits at 60% or higher.
RESULT: Criterion not met

QUERY: Answer whether inhibition of aggregation of `CC(=O)Nc1ccc(OC(=O)c2ccccc2O)cc1` is greater than or equal to 60%.
RESULT: Criterion met

QUERY: Form field: inhibition of aggregation at least 60%? Entry: `c1coc(CNc2ncnc3nc[nH]c23)c1`
RESULT: Criterion met

QUERY: hey, is inhibition of aggregation for this one >= 60%? `CC12CCC(CC1)C(C)(C)O2`
RESULT: Criterion met

QUERY: Dear colleague, could you confirm whether `CN[C@H](CC(=O)O)C(=O)O` has inhibition of aggregation at or above 60%?
RESULT: Criterion met

QUERY: Reported inhibition of aggregation reaches at least 60% for `COC(=O)[C@H]1[C@H]2C[C@H]3c4[nH]c5ccccc5c4CCN3C[C@H]2CC[C@@H]1O` ?
RESULT: Criterion met

QUERY: Does inhibition of aggregation meet or surpass 60% for `CC(=O)NCCc1c[nH]c2ccc(O)cc12` ?
RESULT: Criterion not met

QUERY: Would you say CC(=O)c1c(O)c(C)c(O)c2c1OC1=CC(=O)C(C(C)=O)C(=O)C12C (stereo not given) shows inhibition of aggregation at minimum 60%?
RESULT: Criterion not met

* * *

Assay: viability loss in pontine glioma line – cell-based, SU-DIPG-XXV, MIPE5.0, CellTiter-Glo, qHTS, dose response (AID 1347065);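 note: cells exposed to compound for 48 hours before ATP readout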
Details: CellTiter-Glo ATP luminescence
Results filed as inconclusive are left out. Activity calls are given as the source filed them. No cut-off is given here; in the data, nearly all actives have AC50 up to about 26 µM.
metricName: AC50

Please review the entries below; each comes with its answer.
N[C@@H](Cc1c[nH]c2ccc(O)cc12)C(=O)O
inactive
CC1=C(/C=C/C(C)=C/C=C/C(C)=C\C(=O)O)C(C)(C)CCC1
6.61 µM (active)
CC#C[C@]1(O)CC[C@H]2[C@@H]3CCC4=CC(=O)CCC4=C3[C@@H](c3ccc(N(C)C)cc3)C[C@@]21C
29.5 µM (active)
C[C@]12CC[C@@H]3c4ccc(O)cc4C[C@@H](CCCCCCCCCS(=O)CCCC(F)(F)C(F)(F)F)[C@H]3[C@@H]1CC[C@@H]2O (some centres undefined)
inactive
O=C(CCc1ccc(O)cc1)c1c(O)cc(O)cc1O
inactive
CC(C)(Oc1ccc(C2CC2(Cl)Cl)cc1)C(=O)O (centres undefined)
inactive
CC1=C(/C=C/C(C)=C/C=C/C(C)=C/C(=O)Nc2ccc(O)cc2)C(C)(C)CCC1
14.8 µM (active)
COc1cc2c(Nc3ccc(NC(=O)c4ccccc4)cc3)ncnc2cc1OCCCN1CCOCC1
1.32 µM (active)

QUERY: Give the value of AC50 reported for the following: CC(C(=O)O)c1ccc2c(c1)CC(=O)c1ccccc1S2 (centres undefined)
RESULT: inactive

QUERY: Assign AC50 to the following record: `CCC(=O)NCC[C@@H]1CCc2ccc3c(c21)CCO3`
RESULT: inactive

QUERY: Let me know recorded AC50 for `CC(=O)NCCCS(=O)(=O)O` , thanks.
RESULT: inactive
